Reference source for all entries: patent US12247031B2

Quick record of pKi values for Human PDE9 (PDE9A2) (Homo sapiens (Human), UniProt O76083).
Give only the number. pKi is defined as minus log10 of concentration in molar units.

Past entries and their recorded results:
CC(C1CCOCC1)n1nc(C#N)c2c(=O)[nH]c(C3CCC3n3cc(C#N)cn3)nc21 (single isomer, unassigned) [Example 48]: 6.44
C[C@@H](c1ccc(C(F)(F)F)nc1)n1nc(C#N)c2c(=O)[nH]c(C3CCC3c3ccnn3C)nc21 (single isomer, unassigned): 9.84
CC(c1ccc(C(F)(F)F)nc1)n1nc(C#N)c2c(=O)[nH]c(C3CCC3n3ccc(C#N)n3)nc21 (single isomer, unassigned) [Example 26]: 7.02
C[C@@H](c1ccc(C(F)(F)F)nc1)n1nc(C#N)c2c(=O)[nH]c(C3CCC3n3cc(C(F)(F)F)cn3)nc21 (stereo partly shown) [Example 43]: 8.32
Cc1nnc(C2CCC2c2nc3c(c(C#N)nn3C(C)c3ccc(C(F)(F)F)nc3)c(=O)[nH]2)o1 (single isomer, unassigned) [Example 4]: 6.64

Problem: Lab note: record pKi of C[C@@H](c1ccc(C(F)(F)F)nc1)n1nc(C#N)c2c(=O)[nH]c(C3CCC3c3ccccn3)nc21 (single isomer, unassigned) [Example 9] tested on Human PDE9 (PDE9A2) (Homo sapiens (Human), UniProt O76083).
Solution: 8.57

Problem: Lab note: record pKi of CC(C1CCOCC1)n1nc(C#N)c2c(=O)[nH]c(C3CCC3n3cccn3)nc21 (stereo not shown) [Example 40] tested on Human PDE9 (PDE9A2) (Homo sapiens (Human), UniProt O76083).
Solution: 6.65

Problem: Lab note: record pKi of Cc1nnc(C2CCC2c2nc3c(c(C#N)nn3C(C)c3ccc(C(F)(F)F)nc3)c(=O)[nH]2)o1 (single isomer, unassigned) [Example 7] tested on Human PDE9 (PDE9A2) (Homo sapiens (Human), UniProt O76083).
Solution: 6.78

Problem: Lab note: record pKi of C[C@@H](c1ccc(C(F)(F)F)nc1)n1nc(C#N)c2c(=O)[nH]c(C3CCC3c3cncnc3)nc21 (single isomer, unassigned) [Example 21] tested on Human PDE9 (PDE9A2) (Homo sapiens (Human), UniProt O76083).
Solution: 6.76

Problem: Lab note: record pKi of C[C@@H](c1ccc(C(F)(F)F)nc1)n1nc(C#N)c2c(=O)[nH]c(C3CCC3n3cc(F)cn3)nc21 (single isomer, unassigned) [Example 34] tested on Human PDE9 (PDE9A2) (Homo sapiens (Human), UniProt O76083).
Solution: 8.23

Problem: Lab note: record pKi of Cc1nnc(C2CCC2c2nc3c(c(C#N)nn3C(C)c3ccc(C(F)(F)F)nc3)c(=O)[nH]2)o1 (single isomer, unassigned) [Example 2] tested on Human PDE9 (PDE9A2) (Homo sapiens (Human), UniProt O76083).
Solution: 6.93

Problem: Lab note: record pKi of CC(C1CCOCC1)n1nc(C#N)c2c(=O)[nH]c(C3CCC3n3cccn3)nc21 (stereo not shown) [Example 46] tested on Human PDE9 (PDE9A2) (Homo sapiens (Human), UniProt O76083).
Solution: 6.22

Problem: Lab note: record pKi of C[C@@H](c1ccc(C(F)(F)F)nc1)n1nc(C#N)c2c(=O)[nH]c(C3CCC3c3ccc(F)cn3)nc21 (single isomer, unassigned) [Example 13] tested on Human PDE9 (PDE9A2) (Homo sapiens (Human), UniProt O76083).
Solution: 6.22
